Provenance of the data: patent US5677470A

We begin with a simple list: items and their reported solubility.
test: solubility in physiological saline; assay type: physicochemical; conditions: physiological saline
Just the number in µg/mL, nothing appended.

The recorded solubility for CC(=O)O[C@@]12CO[C@@H]1C[C@H](O)[C@@]1(C)C(=O)[C@H](O)C3=C(C)[C@@H](OC(=O)[C@H](OC(=O)COC(=O)[C@@H]4CCCN4)[C@@H](NC(=O)OC(C)(C)C)c4ccccc4)C[C@@](O)([C@@H](OC(=O)c4ccccc4)[C@H]21)C3(C)C is 1400

CCOC(=O)N[C@@H](c1ccccc1)[C@@H](OC(=O)COC(=O)C[C@H](N)C(=O)OCC)C(=O)O[C@H]1C[C@@]2(O)[C@@H](OC(=O)c3ccccc3)[C@@H]3[C@]4(OC(C)=O)CO[C@@H]4C[C@H](O)[C@@]3(C)C(=O)[C@H](O)C(=C1C)C2(C)C yielded solubility of 4000

Notebook: CCOC(=O)[C@@H](N)CC(=O)OCC(=O)O[C@@H](C(=O)O[C@H]1C[C@@]2(O)[C@@H](OC(=O)c3ccccc3)[C@@H]3[C@]4(OC(C)=O)CO[C@@H]4C[C@H](O)[C@@]3(C)C(=O)[C@H](O)C(=C1C)C2(C)C)[C@@H](NC(=O)OCC1CCC1)c1ccccc1 , solubility read as 1000

----------
Entries annotated with measured log10 of solubility
experiment: solubility in physiological saline; assay type: physicochemical; conditions: physiological saline
Base-10 log of solubility, unit µg/mL.

{"molecule": "CCOC(=O)[C@@H](N)CC(=O)OCC(=O)O[C@@H](C(=O)O[C@H]1C[C@@]2(O)[C@@H](OC(=O)c3ccccc3)[C@@H]3[C@]4(OC(C)=O)CO[C@@H]4C[C@H](O)[C@@]3(C)C(=O)[C@H](O)C(=C1C)C2(C)C)[C@@H](NC(=O)OCC(F)(F)F)c1ccccc1 [Example 46]", "endpoint result": 3.70}

Record CCOC(=O)[C@@H](N)CC(=O)OCC(=O)O[C@@H](C(=O)O[C@H]1C[C@@]2(O)[C@@H](OC(=O)c3ccccc3)[C@@H]3[C@]4(OC(C)=O)CO[C@@H]4C[C@H](O)[C@@]3(C)C(=O)[C@H](O)C(=C1C)C2(C)C)[C@@H](NC(=O)OC(C)(C)C)c1ccc(F)cc1F [Example 52] . Reported log10 of solubility: 3.00

----------
test: solubility in physiological saline; type: physicochemical; settings: physiological saline
reported metric: solubility (µg/mL)
Numeric answer only, unit µg/mL assumed.

In the examples that follow, each entry is paired with its recorded solubility.
{"molecule": "CCOC(=O)[C@@H](N)CC(=O)OCC(=O)O[C@@H](C(=O)O[C@H]1C[C@@]2(O)[C@@H](OC(=O)c3ccccc3)[C@@H]3[C@]4(OC(C)=O)CO[C@@H]4C[C@H](O)[C@@]3(C)C(=O)[C@H](O)C(=C1C)C2(C)C)[C@@H](NC(=O)CCCCCl)c1ccccc1 [Example 42]", "endpoint result": 5000}
{"molecule": "CCOC(=O)[C@@H](N)CC(=O)OCC(=O)O[C@@H](C(=O)O[C@H]1C[C@@]2(O)[C@@H](OC(=O)c3ccccc3)[C@@H]3[C@]4(OC(C)=O)CO[C@@H]4C[C@H](O)[C@@]3(C)C(=O)[C@H](O)C(=C1C)C2(C)C)[C@@H](NC(=O)OC(C)(C)C)c1ccc(OC)cc1 [Example 56]", "endpoint result": 15000}
{"molecule": "CC(=O)O[C@@]12CO[C@@H]1C[C@H](O)[C@@]1(C)C(=O)[C@H](O)C3=C(C)[C@@H](OC(=O)[C@H](OC(=O)COC(=O)CCN)[C@@H](NC(=O)c4ccccc4)c4ccccc4)C[C@@](O)([C@@H](OC(=O)c4ccccc4)[C@H]21)C3(C)C [Example 38]", "endpoint result": 1000}

Per the record, CCOC(=O)[C@@H](N)CC(=O)OCC(=O)O[C@@H](C(=O)O[C@H]1C[C@@]2(O)[C@@H](OC(=O)c3ccccc3)[C@@H]3[C@]4(OC(C)=O)CO[C@@H]4C[C@H](O)[C@@]3(C)C(=O)[C@H](O)C(=C1C)C2(C)C)[C@@H](NC(=O)OCC1CC1)c1ccccc1 [Example 49] has solubility of 5000

----------
assay: solubility in physiological saline; type: physicochemical; conditions: physiological saline
Label Met when solubility is at or above 5000 µg/mL; otherwise label Not met.

{"compound": "CC(=O)O[C@@]12CO[C@@H]1C[C@H](O)[C@@]1(C)C(=O)[C@H](O)C3=C(C)[C@@H](OC(=O)[C@H](OC(=O)COC(=O)[C@H](C)N)[C@@H](NC(=O)OC(C)(C)C)c4ccccc4)C[C@@](O)([C@@H](OC(=O)c4ccccc4)[C@H]21)C3(C)C [Example 36]", "classification": "Not met"}
{"compound": "CCOC(=O)[C@@H](N)CC(=O)OCCCCC(=O)O[C@@H](C(=O)O[C@H]1C[C@@]2(O)[C@@H](OC(=O)c3ccccc3)[C@@H]3[C@]4(OC(C)=O)CO[C@@H]4C[C@H](O)[C@@]3(C)C(=O)[C@H](O)C(=C1C)C2(C)C)[C@@H](NC(=O)OC(C)(C)C)c1ccccc1 [Example 37]", "classification": "Not met"}
{"compound": "CCOC(=O)[C@@H](N)CC(=O)OCC(=O)O[C@@H](C(=O)O[C@H]1C[C@@]2(O)[C@@H](OC(=O)c3ccccc3)[C@@H]3[C@]4(OC(C)=O)CO[C@@H]4C[C@H](O)[C@@]3(C)C(=O)[C@H](O)C(=C1C)C2(C)C)[C@@H](NC(=O)OCC1C(C)(C)C1(F)F)c1ccccc1 (stereo partly drawn) [Example 45]", "classification": "Not met"}
{"compound": "CCOC(=O)[C@@H](N)CC(=O)OCC(=O)O[C@@H](C(=O)O[C@H]1C[C@@]2(O)[C@@H](OC(=O)c3ccccc3)[C@@H]3[C@]4(OC(C)=O)CO[C@@H]4C[C@H](O)[C@@]3(C)C(=O)[C@H](O)C(=C1C)C2(C)C)[C@@H](NC(=O)c1cccs1)c1ccccc1 [Example 41]", "classification": "Not met"}
{"compound": "COCCOC(=O)[C@@H](N)CC(=O)OCC(=O)O[C@@H](C(=O)O[C@H]1C[C@@]2(O)[C@@H](OC(=O)c3ccccc3)[C@@H]3[C@]4(OC(C)=O)CO[C@@H]4C[C@H](O)[C@@]3(C)C(=O)[C@H](O)C(=C1C)C2(C)C)[C@@H](NC(=O)OC(C)(C)C)c1ccccc1 [Example 35]", "classification": "Met"}

Tell me whether solubility is at least 5000 µg/mL here: CCOC(=O)[C@@H](N)CC(=O)OCC(=O)O[C@@H](C(=O)O[C@H]1C[C@@]2(O)[C@@H](OC(=O)c3ccccc3)[C@@H]3[C@]4(OC(C)=O)CO[C@@H]4C[C@H](O)[C@@]3(C)C(=O)[C@H](O)C(=C1C)C2(C)C)[C@@H](NC(=O)c1ccco1)c1ccccc1 [Example 40]
Met

Could you verify whether the entry CCOC(=O)[C@@H](N)CC(=O)OCC(=O)O[C@@H](C(=O)O[C@H]1C[C@@]2(O)[C@@H](OC(=O)c3ccccc3)[C@@H]3[C@]4(OC(C)=O)CO[C@@H]4C[C@H](O)[C@@]3(C)C(=O)[C@H](O)C(=C1C)C2(C)C)[C@@H](NC(=O)c1cc(OC)ccc1OC)c1ccccc1 [Example 43] shows solubility of no less than 5000 µg/mL?
Not met
